viability, T/C by entry:
Tested on: 324938-238-R-J1-PDC complex spheroid growth, % test/control
Test: Anticancer human tumor 324938-238-R-J1-PDC patient-derived bladder carcinoma cell line growth inhibition [AhR]
Conditions: second compound 1 µM; first compound 0.949 µM; stronger effect = lower value

>  <compound>
CCN(c1cc(-c2ccc(CN3CCOCC3)cc2)cc(C(=O)NCc2c(C)cc(C)[nH]c2=O)c1C)C1CCOCC1 + Cc1cncc(-c2nc(NCCc3c[nH]c4ccccc34)c3ncn(C(C)C)c3n2)c1

>  <viability, T/C>
94%

$$$$
>  <compound>
CCN(c1cc(-c2ccc(CN3CCOCC3)cc2)cc(C(=O)NCc2c(C)cc(C)[nH]c2=O)c1C)C1CCOCC1 + Cc1ccccc1N=Nc1ccc(NC(=O)c2ccnn2C)c(C)c1

>  <viability, T/C>
98.7%

$$$$
>  <compound>
O=C(C=Cn1cnc(-c2cc(C(F)(F)F)cc(C(F)(F)F)c2)n1)NNc1cnccn1 + CC(CO)NC(=O)c1cc(-c2ccc(Cl)cc2)nn(-c2cnn(C)c2)c1=O

>  <viability, T/C>
23.1%

$$$$

Form field: viability, T/C recorded for CCN(c1cc(-c2ccc(CN3CCOCC3)cc2)cc(C(=O)NCc2c(C)cc(C)[nH]c2=O)c1C)C1CCOCC1 + CC(CO)NC(=O)c1cc(-c2ccc(Cl)cc2)nn(-c2cnn(C)c2)c1=O with 324938-238-R-J1-PDC complex spheroid growth, % test/control (enter value)
90.2%

# get_value(readout= viability, T/C, system= 324938-238-R-J1-PDC complex spheroid growth, % test/control) for O=C(C=Cn1cnc(-c2cc(C(F)(F)F)cc(C(F)(F)F)c2)n1)NNc1cnccn1 + Cc1cncc(-c2nc(NCCc3c[nH]c4ccccc34)c3ncn(C(C)C)c3n2)c1
50.4%

Query for 324938-238-R-J1-PDC complex spheroid growth, % test/control: what viability, T/C does the record show for O=C(C=Cn1cnc(-c2cc(C(F)(F)F)cc(C(F)(F)F)c2)n1)NNc1cnccn1 + Cc1ccccc1N=Nc1ccc(NC(=O)c2ccnn2C)c(C)c1 ?
18.6%

---

Here the recorded IC50 is given for each entry.
System: 324938-238-R-J1-PDC complex spheroid growth, % test/control
Assay: Anticancer human tumor 324938-238-R-J1-PDC cell line growth inhibition [AhR];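 further: spheroids exposed to agents for seven days before viability read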
Conditions: curve of first compound; second compound 0.316 µM
Unit nM implied. Number only.

>  <molecule>
Nc1ccccc1NC(=O)c1ccc(CNC(=O)OCc2cccnc2)cc1 + Cc1ccccc1N=Nc1ccc(NC(=O)c2ccnn2C)c(C)c1

>  <assayTarget>
324938-238-R-J1-PDC complex spheroid growth, % test/control

>  <unitLabel>
nM

>  <IC50>
1740

$$$$

Return reported IC50; argument: CC1COCCN1c1cc(-c2ccnn2C)c2ccnc(-c3ccn[nH]3)c2n1 (centres undefined) + Cc1ccccc1N=Nc1ccc(NC(=O)c2ccnn2C)c(C)c1
379

---

Test system: 324938-238-R-J1-PDC complex spheroid growth, % test/control
Assay: Anticancer human tumor 324938-238-R-J1-PDC cell line growth inhibition [AhR]; active = viability on the fitted dose curve at most 10% of control; inactive = the rest;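 further: spheroids exposed to agents for seven days before viability read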
Settings: second compound 10 µM; first compound 0.000949 µM
Just give me one of these, please: label 1 for active, label 0 for inactive

A selection of reference data follows.
>  <compound>
CCc1c2c(nc3ccc(O)cc13)-c1cc3c(c(=O)n1C2)COC(=O)[C@]3(O)CC + Cc1cncc(-c2nc(NCCc3c[nH]c4ccccc34)c3ncn(C(C)C)c3n2)c1

>  <answerLabel>
label 1

$$$$
>  <compound>
CCc1c2c(nc3ccc(O)cc13)-c1cc3c(c(=O)n1C2)COC(=O)[C@]3(O)CC + CC(CO)NC(=O)c1cc(-c2ccc(Cl)cc2)nn(-c2cnn(C)c2)c1=O

>  <answerLabel>
label 0

$$$$

Okay, now this compound:
Record request — test call for Nc1ncn(C2CC(O)C(CO)S2)c(=O)n1 (stereo not drawn) + Cc1ccccc1N=Nc1ccc(NC(=O)c2ccnn2C)c(C)c1
label 0

---

Tested on: 324938-238-R-J1-PDC complex spheroid growth, % test/control
Experiment: Anticancer human tumor 324938-238-R-J1-PDC cell line growth inhibition [AhR];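 further: spheroids exposed to agents for seven days before viability read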
Conditions: second compound 1 µM; first compound 0.3 µM; stronger effect = lower value
measureName: viability, T/C (%)
Please reply with the bare figure in % and do not write the unit itself.

>  <molecule>
CCc1c2c(nc3ccc(O)cc13)-c1cc3c(c(=O)n1C2)COC(=O)[C@]3(O)CC + CC(CO)NC(=O)c1cc(-c2ccc(Cl)cc2)nn(-c2cnn(C)c2)c1=O

>  <measureName>
viability, T/C

>  <reportedValue>
15.3

$$$$

Form field: reported viability, T/C of CCc1c2c(nc3ccc(O)cc13)-c1cc3c(c(=O)n1C2)COC(=O)[C@]3(O)CC + Cc1cncc(-c2nc(NCCc3c[nH]c4ccccc34)c3ncn(C(C)C)c3n2)c1
70.3

For the molecule O=C(C=Cn1cnc(-c2cc(C(F)(F)F)cc(C(F)(F)F)c2)n1)NNc1cnccn1 + CC(CO)NC(=O)c1cc(-c2ccc(Cl)cc2)nn(-c2cnn(C)c2)c1=O , what viability, T/C is on record?
31.1

---

System: 324938-238-R-J1-PDC complex spheroid growth, % test/control
Assay: Anticancer human tumor 324938-238-R-J1-PDC cell line growth inhibition [AhR];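 further: spheroids exposed to agents for seven days before viability read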
Settings: second compound 1 µM; first compound 0.1 µM; stronger effect = lower value
measureName: viability, T/C (%)
Your answer should be a plain number; it is taken to be in %.

Reference set (5 entries):
>  <compound>
Cn1ncnc1C1c2n[nH]c(=O)c3cc(F)cc(c23)NC1c1ccc(F)cc1 (configuration not stated) + Cc1cncc(-c2nc(NCCc3c[nH]c4ccccc34)c3ncn(C(C)C)c3n2)c1

>  <assayTarget>
324938-238-R-J1-PDC complex spheroid growth, % test/control

>  <viability, T/C [%]>
134

$$$$
>  <compound>
COc1cccc2c1C(=O)c1c(O)c3c(c(O)c1C2=O)CC(O)(C(=O)CO)CC3OC1CC(N)C(O)C(C)O1 (configuration not stated) + Cc1ccccc1N=Nc1ccc(NC(=O)c2ccnn2C)c(C)c1

>  <assayTarget>
324938-238-R-J1-PDC complex spheroid growth, % test/control

>  <viability, T/C [%]>
31.4

$$$$
>  <compound>
CC1(C)CCC(CN2CCN(c3ccc(C(=O)NS(=O)(=O)c4ccc(NCC5CCOCC5)c([N+](=O)[O-])c4)c(Oc4cnc5[nH]ccc5c4)c3)CC2)=C(c2ccc(Cl)cc2)C1 + Cc1ccccc1N=Nc1ccc(NC(=O)c2ccnn2C)c(C)c1

>  <assayTarget>
324938-238-R-J1-PDC complex spheroid growth, % test/control

>  <viability, T/C [%]>
85.8

$$$$
>  <compound>
COc1cc(Nc2ncc3c(n2)-c2ccc(Cl)cc2C(c2c(F)cccc2OC)=NC3)ccc1C(=O)O + Cc1cncc(-c2nc(NCCc3c[nH]c4ccccc34)c3ncn(C(C)C)c3n2)c1

>  <assayTarget>
324938-238-R-J1-PDC complex spheroid growth, % test/control

>  <viability, T/C [%]>
127

$$$$
>  <compound>
COc1cc(C2c3cc4c(cc3C(OC3OC5COC(C)OC5C(O)C3O)C3COC(=O)C23)OCO4)cc(OC)c1O (configuration not stated) + Cc1ccccc1N=Nc1ccc(NC(=O)c2ccnn2C)c(C)c1

>  <assayTarget>
324938-238-R-J1-PDC complex spheroid growth, % test/control

>  <viability, T/C [%]>
75.5

$$$$

viability, T/C lookup needed for COc1cccc2c1C(=O)c1c(O)c3c(c(O)c1C2=O)CC(O)(C(=O)CO)CC3OC1CC(N)C(O)C(C)O1 (configuration not stated) + CC(CO)NC(=O)c1cc(-c2ccc(Cl)cc2)nn(-c2cnn(C)c2)c1=O , thanks.
30.9

Looking for the measured viability, T/C of O=C(c1cc(Cc2n[nH]c(=O)c3ccccc23)ccc1F)N1CCN(C(=O)C2CC2)CC1 + CC(CO)NC(=O)c1cc(-c2ccc(Cl)cc2)nn(-c2cnn(C)c2)c1=O , can you help?
77.1

Returns the measured viability, T/C for the input compound. Input: Nc1ccn(C2OC(CO)C(O)C2(F)F)c(=O)n1 (configuration not stated) + Cc1ccccc1N=Nc1ccc(NC(=O)c2ccnn2C)c(C)c1
34.1

Suppose we examine the compound NS(=O)(=O)OCC1CC(n2ccc3c(NC4CCc5ccccc54)ncnc32)CC1O (configuration not stated) + Cc1cncc(-c2nc(NCCc3c[nH]c4ccccc34)c3ncn(C(C)C)c3n2)c1 ; what viability, T/C value has been reported?
95.5

Bench note: what viability, T/C did CC[C@@]1(O)C(=O)OCc2c1cc1n(c2=O)Cc2cc3c(CN(C)C)c(O)ccc3nc2-1 + Cc1cncc(-c2nc(NCCc3c[nH]c4ccccc34)c3ncn(C(C)C)c3n2)c1 show?
96.9

Name the reported viability, T/C value associated with the compound Nc1ncn(C2CC(O)C(CO)O2)c(=O)n1 (configuration not stated) + Cc1cncc(-c2nc(NCCc3c[nH]c4ccccc34)c3ncn(C(C)C)c3n2)c1
125

Looking for the measured viability, T/C of COc1ccc([C@@H](O)c2cc(-c3ncnc4cc(N5CCOCC5)ccc34)c(F)cc2Cl)nn1 + CC(CO)NC(=O)c1cc(-c2ccc(Cl)cc2)nn(-c2cnn(C)c2)c1=O , can you help?
88.7
